Test: Stability in cryopreserved hepatocytes, human
Assay endpoint: Trep Concentration (μM) 60 min (µM)
Record the value in µM, omitting the unit from your answer.

## Task Need Trep Concentration (μM) 60 min of CCCCCC(CCC1C(O)CC2Cc3c(cccc3OCC(=O)O)CC21)OC(=O)C12CC3CC(CC(C3)C1)C2 (centres unmarked) , thanks.
## Result 0.338

## Task Need Trep Concentration (μM) 60 min of CCCCCC(CCC1C(O)CC2Cc3c(cccc3OCC(=O)O)CC21)OC(=O)CC (centres unmarked) , thanks.
## Result 0.589

## Task Need Trep Concentration (μM) 60 min of CCCCCC(CCC1C(O)CC2Cc3c(cccc3OCC(=O)O)CC21)OC(=O)CO (centres unmarked) , thanks.
## Result 0.553

## Task Need Trep Concentration (μM) 60 min of CCCCCC1CCC2C(CC3Cc4c(cccc4OCC(=O)O)CC32)OP(=O)(Oc2ccccc2)O1 (mixture of isomers) , thanks.
## Result 0

## Task Need Trep Concentration (μM) 60 min of CCCCCC(CCC1C(O)CC2Cc3c(cccc3OCC(=O)O)CC21)OCc1oc(=O)oc1C (centres unmarked) , thanks.
## Result 0.608

## Task Need Trep Concentration (μM) 60 min of CCCCCC(CCC1C(O)CC2Cc3c(cccc3OCC(=O)O)CC21)OC(=O)CCC(=O)N1CCOCC1 (centres unmarked) , thanks.
## Result 0.0464

## Task Need Trep Concentration (μM) 60 min of CCCCCC(CCC1C(O)CC2Cc3c(cccc3OCC(=O)O)CC21)OC(=O)COc1ccccc1 (centres unmarked) , thanks.
## Result 0.452

## Task Need Trep Concentration (μM) 60 min of CCCCCC(CCC1C(O)CC2Cc3c(cccc3OCC(=O)O)CC21)OCC(=O)O (centres unmarked) , thanks.
## Result 0
